target: DYRK1A (human); experiment: radiometric filter-binding kinase assay, Kinase HotSpot; settings: compound 0.5 µM; ATP 10 µM
Field: residual activity. Provide a value for each of the compounds that follow.
One number for each entry, in %.

Study these solved cases before continuing.
# smiles str, value type, result value
data = [
    ("COc1cc2c(Nc3ccc(Br)cc3F)ncnc2cc1OCC1CCN(C)CC1", "residual activity", 106),
    ("Nc1ncnc2c1cnn2-c1ccccc1", "residual activity", 96.8),
    ("O=C1NC(=O)c2c1c1c3ccccc3[nH]c1c1[nH]c3cc(Br)ccc3c21", "residual activity", 84),
    ("N/C(=N\\N=C/c1ccc(-c2cccc([N+](=O)[O-])c2)o1)N[N+](=O)[O-]", "residual activity", 95.8),
]

Hey, quick one: what's residual activity for each of these?
1. Cc1cc(Nc2nc(-c3ccccc3)nc3ccccc23)n[nH]1
2. CCc1nc(-c2ccc(OC)cc2)[nH]c1-c1ccncc1
3. O=c1[nH]c2ccccc2n1C1CCN(Cc2ccc(-c3nc4cc5[nH]cnc5cc4nc3-c3ccccc3)cc2)CC1
4. O=C(O)c1ccc2c3c1cccc3c(=O)n1c3ccccc3nc21
5. COc1cccc(-c2cc(=O)c3ccccc3o2)c1N
6. O=c1cc(N2CCOCC2)oc2c(-c3ccccc3)cccc12
7. CCOc1cc2ncnc(Nc3cccc(Br)c3)c2cc1OCC

Response given:
1: 104; 2: 97.7; 3: 101; 4: 55.5; 5: 94; 6: 97.3; 7: 98.7

====

Consider the following compounds; for each one, report its residual activity.
target: MYO3B (human); experiment: radiometric filter-binding kinase assay, Kinase HotSpot; settings: compound 0.5 µM; ATP 10 µM
Answers are plain numbers, in %.

# smiles str, target desc, result value
rows = [
    ("COc1cc2c(cc1OC)-c1[nH]nc(Nc3cccc(F)c3)c1C2", "MYO3B (human)", 107),
    ("FC(F)(F)c1ccc(/C=C/c2nc(COc3ccc(CCCCn4ccnn4)cc3)co2)cc1", "MYO3B (human)", 93.7),
    ("COc1cc2c(Nc3ccc(Br)cc3F)ncnc2cc1OCC1CCN(C)CC1", "MYO3B (human)", 84.2),
]

Parameters: items (list). Returns: residual activity for each item.
1. N#Cc1c(NC(=O)c2cccc3ccccc23)sc2c1CCCC2
2. COc1cccc(-c2cc(=O)c3ccccc3o2)c1N
3. Cn1cc(/C=C2\C(=O)Nc3ccc(S(N)(=O)=O)cc32)c2ccccc21
4. Nc1ncnc2c1cnn2-c1ccccc1
5. O=C1NC(=O)c2cc(Nc3ccc(F)cc3)c(Nc3ccc(F)cc3)cc21

Response given:
[107, 97.8, 74.6, 93.4, 98.2]

Give residual activity for all compounds that follow.
1. O=c1cc(N2CCOCC2)oc2c(-c3ccccc3)cccc12
2. O=c1c(-c2ccc(F)cc2)c(-c2ccncc2)[nH]n1-c1ccc(Cl)cc1
3. N#C/C(=C1/Nc2ccccc2S1)c1ccnc(NCCc2cccnc2)n1

Response given:
1. 104
2. 90.7
3. 96.1

For every record below, what is its residual activity?
1. COc1cc2c(N3CCN(C(=O)Nc4ccc(OC(C)C)cc4)CC3)ncnc2cc1OCCCN1CCCCC1
2. CCc1nc(-c2ccc(OC)cc2)[nH]c1-c1ccncc1
3. O=C(O)c1ccc2c3c1cccc3c(=O)n1c3ccccc3nc21

Response given:
1. 88.5
2. 107
3. 96.7

====

For each entry below, report its residual activity value.
target: ERBB4 (human) (UniProt Q15303); experiment: radiometric filter-binding kinase assay, Kinase HotSpot; conditions: compound 0.5 µM; ATP 10 µM
Sequence (Q15303 whole entry, looked up): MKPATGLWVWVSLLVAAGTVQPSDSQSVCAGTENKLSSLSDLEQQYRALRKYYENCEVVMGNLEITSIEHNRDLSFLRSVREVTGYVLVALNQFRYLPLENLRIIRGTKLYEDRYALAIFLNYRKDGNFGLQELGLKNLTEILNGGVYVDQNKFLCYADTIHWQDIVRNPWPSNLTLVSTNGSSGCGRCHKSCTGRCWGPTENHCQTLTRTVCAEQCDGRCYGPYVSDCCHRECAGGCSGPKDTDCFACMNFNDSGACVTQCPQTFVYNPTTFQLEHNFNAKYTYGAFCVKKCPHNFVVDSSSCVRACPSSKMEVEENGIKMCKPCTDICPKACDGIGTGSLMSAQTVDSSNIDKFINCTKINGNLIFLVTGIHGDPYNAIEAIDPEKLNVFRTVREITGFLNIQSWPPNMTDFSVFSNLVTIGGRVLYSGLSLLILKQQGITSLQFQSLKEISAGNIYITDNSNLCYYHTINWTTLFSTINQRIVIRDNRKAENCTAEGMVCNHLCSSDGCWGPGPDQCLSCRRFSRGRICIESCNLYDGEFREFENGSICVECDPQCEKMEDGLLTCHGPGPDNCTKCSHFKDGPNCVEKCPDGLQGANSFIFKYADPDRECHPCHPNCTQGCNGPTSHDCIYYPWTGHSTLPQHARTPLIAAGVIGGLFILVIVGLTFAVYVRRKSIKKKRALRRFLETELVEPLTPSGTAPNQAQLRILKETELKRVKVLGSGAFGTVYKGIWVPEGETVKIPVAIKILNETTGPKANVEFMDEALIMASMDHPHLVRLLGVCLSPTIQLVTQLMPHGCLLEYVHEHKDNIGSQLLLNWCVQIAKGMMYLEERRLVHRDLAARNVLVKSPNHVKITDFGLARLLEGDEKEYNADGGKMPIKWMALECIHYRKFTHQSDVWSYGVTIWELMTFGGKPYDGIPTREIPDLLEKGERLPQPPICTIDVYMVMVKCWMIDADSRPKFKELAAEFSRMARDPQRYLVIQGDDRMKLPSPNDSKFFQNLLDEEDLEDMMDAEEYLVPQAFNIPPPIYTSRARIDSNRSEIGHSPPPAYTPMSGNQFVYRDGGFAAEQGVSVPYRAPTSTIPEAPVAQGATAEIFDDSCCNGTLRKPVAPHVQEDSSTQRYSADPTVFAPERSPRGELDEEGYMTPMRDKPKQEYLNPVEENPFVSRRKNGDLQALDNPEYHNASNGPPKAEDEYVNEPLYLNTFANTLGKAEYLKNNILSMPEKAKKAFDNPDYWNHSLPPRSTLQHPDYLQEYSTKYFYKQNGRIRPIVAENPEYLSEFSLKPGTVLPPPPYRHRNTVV
Give bare numbers, in %.

# smiles str, residual activity / %
data = [
    ("COc1cccc(-c2cc(=O)c3ccccc3o2)c1N", 94.7),
    ("FC(F)(F)c1ccc(/C=C/c2nc(COc3ccc(CCCCn4ccnn4)cc3)co2)cc1", 99.6),
    ("CCCCc1c(-c2ccc(O)cc2)[nH]c2nccnc12", 102),
    ("O=S(=O)(NCCNC/C=C/c1ccc(Br)cc1)c1cccc2cnccc12", 94.2),
]

State the recorded residual activity for every item in the following list.
1. O=c1c2ccccc2[nH]c(=S)n1CCN1CCC(=C(c2ccc(F)cc2)c2ccc(F)cc2)CC1
2. c1ccc(-c2cnc(Nc3ccc(OCCN4CCCC4)cc3)s2)cc1
3. Cc1cc(Nc2nc(-c3ccccc3)nc3ccccc23)n[nH]1
4. O=C(c1ccccc1)c1ccc(N2CCOCC2)cc1O
5. O=c1cc(N2CCOCC2)oc2c(-c3ccccc3)cccc12
6. N#CCCc1ccc2c(c1)-c1[nH]c3ccc([N+](=O)[O-])cc3c1CC(=O)N2

Response given:
1: 87.4; 2: 101; 3: 92; 4: 102; 5: 102; 6: 91.8

====

target: CDK9 CCNK (human) (UniProt O75909+P50750); test: radiometric filter-binding kinase assay, Kinase HotSpot; conditions: compound 0.5 µM; ATP 10 µM
Sequence (O75909 whole entry, looked up): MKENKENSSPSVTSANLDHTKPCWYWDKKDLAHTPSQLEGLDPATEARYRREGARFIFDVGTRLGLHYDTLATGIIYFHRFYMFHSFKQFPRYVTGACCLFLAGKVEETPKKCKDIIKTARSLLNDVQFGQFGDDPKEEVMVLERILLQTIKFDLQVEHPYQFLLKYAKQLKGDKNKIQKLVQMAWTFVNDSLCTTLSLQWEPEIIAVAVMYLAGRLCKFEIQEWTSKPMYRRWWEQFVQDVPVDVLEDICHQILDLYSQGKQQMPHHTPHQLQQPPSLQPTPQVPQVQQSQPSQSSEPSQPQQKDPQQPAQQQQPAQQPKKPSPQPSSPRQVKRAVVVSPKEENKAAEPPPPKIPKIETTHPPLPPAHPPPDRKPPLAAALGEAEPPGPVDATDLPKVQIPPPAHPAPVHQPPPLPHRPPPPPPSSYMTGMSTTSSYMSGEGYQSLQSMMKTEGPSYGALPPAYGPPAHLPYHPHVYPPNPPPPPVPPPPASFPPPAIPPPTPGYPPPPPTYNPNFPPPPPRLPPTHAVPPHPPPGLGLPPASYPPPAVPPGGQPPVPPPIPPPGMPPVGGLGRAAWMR
Sequence (P50750 whole entry, looked up): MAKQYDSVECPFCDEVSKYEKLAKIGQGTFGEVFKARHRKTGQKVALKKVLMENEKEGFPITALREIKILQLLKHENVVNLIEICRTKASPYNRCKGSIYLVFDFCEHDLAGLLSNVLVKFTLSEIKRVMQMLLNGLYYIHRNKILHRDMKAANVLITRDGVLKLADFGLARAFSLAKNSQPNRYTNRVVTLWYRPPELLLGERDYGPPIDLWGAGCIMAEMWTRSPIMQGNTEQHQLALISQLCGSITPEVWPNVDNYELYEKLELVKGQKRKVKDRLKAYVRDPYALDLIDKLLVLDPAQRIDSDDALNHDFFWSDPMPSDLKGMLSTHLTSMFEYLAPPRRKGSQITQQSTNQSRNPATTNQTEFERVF
Class 1.0: residual activity at least 90%. Class 0.0: residual activity below 90%.

// below: answered compounds
# smiles str, category label
measured = [
    ("CCc1nc(-c2ccc(OC)cc2)[nH]c1-c1ccncc1", 1.0),
    ("O=C(c1ccccc1)c1ccc(N2CCOCC2)cc1O", 1.0),
    ("Nc1ncnc2c1cnn2-c1ccccc1", 1.0),
]

Challenge: I'd appreciate it if you could say whether O=c1c(-c2ccc(F)cc2)c(-c2ccncc2)[nH]n1-c1ccc(Cl)cc1 has residual activity at least equal to 90%.
Response given: 1.0

Challenge: Check COc1cccc(-c2cc(=O)c3ccccc3o2)c1N too.
Response given: 1.0

Challenge: Record: O=C(O)c1ccc2c3c1cccc3c(=O)n1c3ccccc3nc21
Response given: 0.0

Challenge: Also O=c1cc(N2CCOCC2)oc2c(-c3ccccc3)cccc12 ?
Response given: 1.0

Challenge: Do the same for N#CCCc1ccc2c(c1)-c1[nH]c3ccc([N+](=O)[O-])cc3c1CC(=O)N2 please
Response given: 0.0

Challenge: Request: CCOc1cc2ncnc(Nc3cccc(Br)c3)c2cc1OCC
Response given: 1.0

Challenge: // repeat for Cn1cc(/C=C2\C(=O)Nc3ccc(S(N)(=O)=O)cc32)c2ccccc21 and report
Response given: 0.0

Challenge: Note, next up: O=c1c2ccccc2[nH]c(=S)n1CCN1CCC(=C(c2ccc(F)cc2)c2ccc(F)cc2)CC1
Response given: 1.0

Challenge: Repeat with O=C1NC(=O)c2c1c1c3ccccc3[nH]c1c1[nH]c3cc(Br)ccc3c21
Response given: 0.0

Challenge: Also c1ccc(-c2cnc(Nc3ccc(OCCN4CCCC4)cc3)s2)cc1 ?
Response given: 0.0

Challenge: Similarly, COc1cc2c(N3CCN(C(=O)Nc4ccc(OC(C)C)cc4)CC3)ncnc2cc1OCCCN1CCCCC1 ?
Response given: 1.0

Challenge: What do you have for CCCCc1c(-c2ccc(O)cc2)[nH]c2nccnc12 ?
Response given: 0.0

Challenge: Same for N/C(=N\N=C/c1ccc(-c2cccc([N+](=O)[O-])c2)o1)N[N+](=O)[O-]
Response given: 1.0

====

Field: residual activity. Provide a value for each of the compounds that follow.
target: PAK7 (human) (UniProt Q9P286); test: radiometric filter-binding kinase assay, Kinase HotSpot; conditions: compound 0.5 µM; ATP 10 µM
Sequence (Q9P286 whole entry, looked up): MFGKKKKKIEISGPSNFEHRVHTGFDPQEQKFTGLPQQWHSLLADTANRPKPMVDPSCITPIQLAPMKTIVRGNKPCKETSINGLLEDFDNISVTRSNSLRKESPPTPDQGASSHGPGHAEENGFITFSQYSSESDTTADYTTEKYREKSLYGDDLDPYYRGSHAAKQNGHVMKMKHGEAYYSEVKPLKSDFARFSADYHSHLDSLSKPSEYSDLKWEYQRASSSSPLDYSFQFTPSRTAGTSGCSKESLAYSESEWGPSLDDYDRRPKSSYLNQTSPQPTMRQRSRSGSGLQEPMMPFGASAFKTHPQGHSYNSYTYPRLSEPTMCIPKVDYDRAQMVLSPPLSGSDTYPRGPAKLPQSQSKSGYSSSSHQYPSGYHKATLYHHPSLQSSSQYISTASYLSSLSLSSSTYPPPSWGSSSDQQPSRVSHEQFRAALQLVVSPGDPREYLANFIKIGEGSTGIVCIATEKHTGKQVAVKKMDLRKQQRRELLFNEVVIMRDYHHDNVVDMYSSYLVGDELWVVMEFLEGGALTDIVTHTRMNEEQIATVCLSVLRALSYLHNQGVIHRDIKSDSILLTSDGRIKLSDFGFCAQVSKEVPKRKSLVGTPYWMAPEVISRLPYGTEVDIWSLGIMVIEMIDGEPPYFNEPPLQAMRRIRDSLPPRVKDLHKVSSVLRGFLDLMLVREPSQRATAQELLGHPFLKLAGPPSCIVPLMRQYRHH
Answers are plain numbers, in %.

Study these solved cases before continuing.
# smiles str, residual activity [%]
rows = [
    ("N#CCCc1ccc2c(c1)-c1[nH]c3ccc([N+](=O)[O-])cc3c1CC(=O)N2", 60.3),
    ("CCc1nc(-c2ccc(OC)cc2)[nH]c1-c1ccncc1", 101),
    ("N#Cc1c(NC(=O)c2cccc3ccccc23)sc2c1CCCC2", 103),
    ("Nc1ncnc2c1cnn2-c1ccccc1", 97),
    ("COc1cc2ncnc(Nc3ccc(O)c(Br)c3)c2cc1OC", 97.7),
    ("O=C1NC(=O)c2c1c1c3ccccc3[nH]c1c1[nH]c3cc(Br)ccc3c21", 96.7),
]

Give measured residual activity for every item shown.
1. O=c1cc(N2CCOCC2)oc2c(-c3ccccc3)cccc12
2. COc1cc2c(N3CCN(C(=O)Nc4ccc(OC(C)C)cc4)CC3)ncnc2cc1OCCCN1CCCCC1
3. Cn1cc(/C=C2\C(=O)Nc3ccc(S(N)(=O)=O)cc32)c2ccccc21
4. O=C(c1ccccc1)c1ccc(N2CCOCC2)cc1O

Response given:
[104, 87.5, 75.3, 99.2]

====

molecular target: WNK2 (human); test: radiometric filter-binding kinase assay, Kinase HotSpot; details: compound 0.5 µM; ATP 10 µM
value type: residual activity (%)
One number for each entry, in %.

These recorded examples may help you get a feel for the data.
# smiles str, residual activity [%]
rows = [
    ("O=c1cc(N2CCOCC2)oc2c(-c3ccccc3)cccc12", 110),
    ("N#C/C(=C1/Nc2ccccc2S1)c1ccnc(NCCc2cccnc2)n1", 106),
    ("COc1cccc(-c2cc(=O)c3ccccc3o2)c1N", 122),
    ("COc1cc2c(Nc3ccc(Br)cc3F)ncnc2cc1OCC1CCN(C)CC1", 100),
    ("O=C(O)c1ccc2c3c1cccc3c(=O)n1c3ccccc3nc21", 106),
    ("CCCCc1c(-c2ccc(O)cc2)[nH]c2nccnc12", 117),
    ("O=C1NC(=O)c2cc(Nc3ccc(F)cc3)c(Nc3ccc(F)cc3)cc21", 110),
    ("N#Cc1c(NC(=O)c2cccc3ccccc23)sc2c1CCCC2", 109),
]

// each compound listed below needs its residual activity
1. CCOc1cc2ncnc(Nc3cccc(Br)c3)c2cc1OCC
2. N/C(=N\N=C/c1ccc(-c2cccc([N+](=O)[O-])c2)o1)N[N+](=O)[O-]
3. Cn1cc(/C=C2\C(=O)Nc3ccc(S(N)(=O)=O)cc32)c2ccccc21
4. O=C1NC(=O)c2c1c1c3ccccc3[nH]c1c1[nH]c3cc(Br)ccc3c21

Response given:
95.8
106
97.7
92.1

Your task in this section: give residual activity for each listed record.
1. FC(F)(F)c1ccc(/C=C/c2nc(COc3ccc(CCCCn4ccnn4)cc3)co2)cc1
2. CCc1nc(-c2ccc(OC)cc2)[nH]c1-c1ccncc1
3. COc1cc2c(cc1OC)-c1[nH]nc(Nc3cccc(F)c3)c1C2
4. c1ccc(-c2cnc(Nc3ccc(OCCN4CCCC4)cc3)s2)cc1
5. Cc1cc(Nc2nc(-c3ccccc3)nc3ccccc23)n[nH]1

Response given:
[95.9, 104, 104, 119, 82.6]

Return reported residual activity values for all items listed beneath this line.
1. O=c1c(-c2ccc(F)cc2)c(-c2ccncc2)[nH]n1-c1ccc(Cl)cc1
2. O=c1[nH]c2ccccc2n1C1CCN(Cc2ccc(-c3nc4cc5[nH]cnc5cc4nc3-c3ccccc3)cc2)CC1
3. O=c1c2ccccc2[nH]c(=S)n1CCN1CCC(=C(c2ccc(F)cc2)c2ccc(F)cc2)CC1
4. O=C(c1ccccc1)c1ccc(N2CCOCC2)cc1O

Response given:
1: 112; 2: 115; 3: 96.3; 4: 100

Would you mind giving residual activity for every compound in the list below?
1. O=S(=O)(NCCNC/C=C/c1ccc(Br)cc1)c1cccc2cnccc12
2. Nc1ncnc2c1cnn2-c1ccccc1
3. N#CCCc1ccc2c(c1)-c1[nH]c3ccc([N+](=O)[O-])cc3c1CC(=O)N2
4. COc1cc2ncnc(Nc3ccc(O)c(Br)c3)c2cc1OC
5. COc1cc2c(N3CCN(C(=O)Nc4ccc(OC(C)C)cc4)CC3)ncnc2cc1OCCCN1CCCCC1

Response given:
99.4
114
112
102
97.4
